Tested on: HEK-293T
Assay: Incucyte cell viability with HEK293T; note: unitless GR value; below 1 slowed growth and below 0 cell loss
Format: toxicity, cell-based
Details: human, 12 h, 10 µM, compound concentration 10 uM, replicate number 1
PROPERTY: Growth Rate

Specify reported Growth Rate for the compound shown: Fc1ccc(-c2c3cccc(C(F)(F)F)c3nn2Cc2ccc(F)cc2Cl)cc1 0.75

Give the value of Growth Rate reported for the following: CN[C@@H](C)C/C=C/c1cncc(OC(C)C)c1 0.02

Fill in Growth Rate for record Nc1ncc2c(n1)-c1c([nH]c3ccc(C4CC4)cc13)CCCC2 0.63

Provide measured Growth Rate value, entry: CN1CCC[C@H]1c1cccnc1 0.64

Please give the documented Growth Rate of Cl.O=C(NCCN1CCC2(CC1)C(=O)NCN2c1cccc(F)c1)c1ccc2ccccc2c1 0.06

Retrieve Growth Rate measured for Fc1ccc(-c2nc(-c3ccc4ccccc4c3F)[nH]c2-c2ccncc2)cc1 and print it. 0.77

Provide one value: measured Growth Rate of S=c1[nH]nc(-c2cccs2)n1-c1ccccc1 0.58

Give the measured Growth Rate for Cc1c(-c2c(F)cc(C(N)=O)c3[nH]c4c(c23)CC[C@H](C(C)(C)O)C4)cccc1-n1c(=O)c2cccc(F)c2n(C)c1=O -0.7

Quickly give me recorded Growth Rate for CNc1nc(NCc2ncccn2)c2c(-c3ccc4ncccc4c3)c[nH]c2n1 0.9

Specify reported Growth Rate for the compound shown: Cn1c(SCc2ccc(C(C)(C)C)cc2)nc(N)cc1=O -0.03

// provenance: ChEMBL document CHEMBL5303304
